Tested on: foxtail, giant (giant foxtail, Setaria faberii)
Assay: Test A postemergence application, visual injury rating
Format: in vivo
Conditions: 125 g ai/ha, approx. 10 d, 0 = no effect, 100 = complete control
Assay readout: Foxtail, Giant plant response rating (0 to 100 scale)

# Compound, Measured
records = [
    ("CCc1ccc(C2Cn3c(C)nnc3C2C(=O)Nc2cccc(F)c2F)cc1 (centres unmarked)", 30),
    ("Cc1nnc2n1CC(c1ccc(C(F)(F)F)cc1)C2C(=O)Nc1ccccc1F (centres unmarked)", 40),
    ("O=C(Nc1ccccc1F)C1C2=NCCCN2CC1c1cccc(C(F)(F)F)c1 (centres unmarked)", 0),
    ("O=C(Nc1ccccc1F)C1c2nncn2CC1c1ccc(Cl)cc1 (centres unmarked)", 20),
    ("Cc1nnc2n1CC(c1ccc(Cl)cc1)C2C(=O)Nc1ccccc1F (centres unmarked)", 0),
    ("O=C(Nc1cccc(F)c1F)C1c2nncn2CC1c1ccc(Cl)cc1 (centres unmarked)", 20),
    ("Cc1nnc2n1CC(c1ccc(C(F)(F)F)cc1)C2C(=O)Nc1ccccc1C(F)(F)F (centres unmarked)", 0),
    ("Cc1nnc2n1CC(c1ccc(Cl)cc1)C2C(=O)Nc1cccc(F)c1F (centres unmarked)", 30),
    ("O=C(Nc1ccccc1F)C1c2nccn2CC1c1cccc(C(F)(F)F)c1 (centres unmarked)", 20),
    ("O=C(Nc1ccccc1F)C1C2=NCC(=O)N2CC1c1cccc(C(F)(F)F)c1 (centres unmarked)", 20),
    ("CCc1ccc(C2Cn3cnnc3C2C(=O)Nc2cccc(F)c2C)cc1 (centres unmarked)", 40),
]
